Data provenance is patent US8685966B2.

test system: HeLa cells; assay: HeLa cell survival (XTT assay), GRP94-sufficient or -deficient cells; type: cell-based; conditions: Homo sapiens, 48 hrs, regardless of presence of GRP94, read-out: IC50 for HeLa cell viability

| record-smiles | IC50 (µM) |
| --- | --- |
| C[C@@H]1C[C@H]2O[C@@H]2/C=C\C=C\C(=O)Cc2c(Cl)c(O)cc(O)c2C(=O)O1 | 8 |

###

target: Grp94 (Canis lupus familiaris); experiment: Binding affinity by fluorescent quenching, Grp94; conditions: read-out: kd for binding to the Hsp90 isoform GRP94
Sequence (P41148 22-804): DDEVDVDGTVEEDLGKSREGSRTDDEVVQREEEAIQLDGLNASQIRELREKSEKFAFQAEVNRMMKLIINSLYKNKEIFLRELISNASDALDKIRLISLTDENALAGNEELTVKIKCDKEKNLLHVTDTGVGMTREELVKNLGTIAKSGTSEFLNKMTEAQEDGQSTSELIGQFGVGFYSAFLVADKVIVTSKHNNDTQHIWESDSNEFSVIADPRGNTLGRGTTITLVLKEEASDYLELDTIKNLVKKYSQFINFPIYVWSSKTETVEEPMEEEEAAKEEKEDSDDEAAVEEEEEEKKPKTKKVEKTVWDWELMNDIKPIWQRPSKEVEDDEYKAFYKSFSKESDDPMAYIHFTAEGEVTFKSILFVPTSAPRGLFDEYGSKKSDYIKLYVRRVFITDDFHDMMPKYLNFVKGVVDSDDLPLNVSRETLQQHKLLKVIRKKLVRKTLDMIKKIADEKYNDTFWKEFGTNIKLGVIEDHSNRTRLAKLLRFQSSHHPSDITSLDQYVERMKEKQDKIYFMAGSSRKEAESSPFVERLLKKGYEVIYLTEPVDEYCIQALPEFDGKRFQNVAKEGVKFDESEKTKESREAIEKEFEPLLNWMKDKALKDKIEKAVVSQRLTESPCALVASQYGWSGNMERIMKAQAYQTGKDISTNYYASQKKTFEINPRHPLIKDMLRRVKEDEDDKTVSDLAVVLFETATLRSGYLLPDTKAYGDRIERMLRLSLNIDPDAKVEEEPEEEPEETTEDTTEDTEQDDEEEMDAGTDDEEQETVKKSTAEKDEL
recorded-metric: Kd

| compound | tested-on | result-value |
| --- | --- | --- |
| COC(=O)c1c(O)cc(O)c(Cl)c1CCC(=O)NC1=CC(=O)C(OC)=CC1=O [Radamide] | Grp94 (Canis lupus familiaris) | 254 nM |
